Tested on: 475296-252-R-J1-PDC spheroid viability
Assay: Anticancer human tumor 475296-252-R-J1-PDC patient-derived rectal carcinoma cell line growth inhibition [PI3K]
Conditions: second compound 1 µM; first compound 0.0316 µM; stronger effect = lower value; spheroids with HUVEC and MSC
Endpoint: viability, T/C

C[C@@H](NC(=O)c1ncnc(N)c1Cl)c1ncc(C(=O)Nc2cc(C(F)(F)F)c(Cl)cn2)s1 + Cc1nc(NC(=O)N2CCCC2C(N)=O)sc1-c1ccnc(C(C)(C)C(F)(F)F)c1: 82.6%
C[C@@H](NC(=O)c1ncnc(N)c1Cl)c1ncc(C(=O)Nc2cc(C(F)(F)F)c(Cl)cn2)s1 + CC(Nc1ccc2c(c1)OCCn1cc(N3C(=O)OCC3C(F)F)nc1-2)C(N)=O: 77.7%
CNC(=O)c1ccc(N2C(=S)N(c3ccc(C#N)c(C(F)(F)F)c3)C(=O)C2(C)C)cc1F + CC(Nc1ccc2c(c1)OCCn1cc(N3C(=O)OCC3C(F)F)nc1-2)C(N)=O: 98.1%

# context switch: different compound, same viability, T/C
// returns reported viability, T/C for input CC(Cn1ccc(-c2ccc(C#N)c(Cl)c2)n1)NC(=O)c1cc(C(C)O)[nH]n1 (stereo unspecified) + COc1c(OCCCN2CCOCC2)ccc2c3n(c(=NC(=O)c4cnc(N)nc4)nc12)CCN3
65.2%

----------
Below is a list of entries, each paired with its recorded viability, T/C value.
System: 475296-252-R-J1-PDC spheroid viability
Experiment: Anticancer human tumor 475296-252-R-J1-PDC cell line growth inhibition [PI3K];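 further: spheroids exposed to agents for seven days before readout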
Settings: second compound 0.1 µM; first compound 0.001 µM; stronger effect = lower value; spheroids with HUVEC and MSC
State the answer as a number, implicitly in %.

Past entries and their recorded results:
CC(C)n1nc(-c2ccc3oc(N)nc3c2)c2c(N)ncnc21 + Cc1nc(NC(=O)N2CCCC2C(N)=O)sc1-c1ccnc(C(C)(C)C(F)(F)F)c1: 98
Cn1ncnc1[C@H]1c2n[nH]c(=O)c3cc(F)cc(c23)N[C@@H]1c1ccc(F)cc1 + Cc1nc(NC(=O)N2CCCC2C(N)=O)sc1-c1ccnc(C(C)(C)C(F)(F)F)c1: 87.1

As a next step, examine the compound that follows.
Data request, read-out viability, T/C, for CC(C)n1nc(-c2ccc3oc(N)nc3c2)c2c(N)ncnc21 + COc1c(OCCCN2CCOCC2)ccc2c3n(c(=NC(=O)c4cnc(N)nc4)nc12)CCN3
84.8

----------
Test system: 475296-252-R-J1-PDC spheroid viability
Assay: Anticancer human tumor 475296-252-R-J1-PDC cell line growth inhibition [PI3K];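 further: spheroids exposed to agents for seven days before readout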
Conditions: curve of first compound; second compound 1 µM; spheroids with HUVEC and MSC
Endpoint: IC50

Consider the reported IC50 for these molecules:
C=CC(=O)N1CCN(c2nc(=O)n(-c3c(C)ccnc3C(C)C)c3nc(-c4c(O)cccc4F)c(F)cc23)C(C)C1 (stereo unspecified) + Cc1nc(NC(=O)N2CCCC2C(N)=O)sc1-c1ccnc(C(C)(C)C(F)(F)F)c1: > 10 µM
CC(Cn1ccc(-c2ccc(C#N)c(Cl)c2)n1)NC(=O)c1cc(C(C)O)[nH]n1 (stereo unspecified) + CC(Nc1ncnc2nc[nH]c12)c1cc2cccc(Cl)c2c(=O)n1-c1ccccc1: > 10 µM
CC(C)n1nc(-c2ccc3oc(N)nc3c2)c2c(N)ncnc21 + CC(Nc1ccc2c(c1)OCCn1cc(N3C(=O)OCC3C(F)F)nc1-2)C(N)=O: > 0.1 µM
CC(C)n1nc(-c2ccc3oc(N)nc3c2)c2c(N)ncnc21 + Cc1nc(NC(=O)N2CCCC2C(N)=O)sc1-c1ccnc(C(C)(C)C(F)(F)F)c1: > 0.1 µM

For CC(Cn1ccc(-c2ccc(C#N)c(Cl)c2)n1)NC(=O)c1cc(C(C)O)[nH]n1 (stereo unspecified) + Cc1nc(NC(=O)N2CCCC2C(N)=O)sc1-c1ccnc(C(C)(C)C(F)(F)F)c1 , what is its reported IC50?
> 10 µM

Could you tell me which IC50 is on file for C[C@@H](NC(=O)c1ncnc(N)c1Cl)c1ncc(C(=O)Nc2cc(C(F)(F)F)c(Cl)cn2)s1 + COc1c(OCCCN2CCOCC2)ccc2c3n(c(=NC(=O)c4cnc(N)nc4)nc12)CCN3 ?
3.76 µM

----------
Tested on: 475296-252-R-J1-PDC spheroid viability
Experiment: Anticancer human tumor 475296-252-R-J1-PDC cell line growth inhibition [PI3K];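 further: spheroids exposed to agents for seven days before readout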
Conditions: second compound 1 µM; first compound 3.16 µM; stronger effect = lower value; spheroids with HUVEC and MSC
Endpoint: viability, T/C (%)
Respond with the bare value in %.

See these solved cases before continuing.
CNC(=O)c1ccc(N2C(=S)N(c3ccc(C#N)c(C(F)(F)F)c3)C(=O)C2(C)C)cc1F + Cc1nc(NC(=O)N2CCCC2C(N)=O)sc1-c1ccnc(C(C)(C)C(F)(F)F)c1: 89.8
C=CC(=O)N1CCN(c2nc(=O)n(-c3c(C)ccnc3C(C)C)c3nc(-c4c(O)cccc4F)c(F)cc23)C(C)C1 (stereo not drawn) + CC(Nc1ccc2c(c1)OCCn1cc(N3C(=O)OCC3C(F)F)nc1-2)C(N)=O: 86.6

Could you now consider this next compound?
# input compound: Cn1nccc1Nc1nccc(-c2ccn(C(CO)c3ccc(Cl)c(F)c3)c(=O)c2)n1 (stereo not drawn) + COc1c(OCCCN2CCOCC2)ccc2c3n(c(=NC(=O)c4cnc(N)nc4)nc12)CCN3 ; wanted: its viability, T/C
10

----------
Tested on: 475296-252-R-J1-PDC spheroid viability
Assay: Anticancer human tumor 475296-252-R-J1-PDC cell line growth inhibition [PI3K];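 further: spheroids exposed to agents for seven days before readout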
Details: second compound 10 µM; first compound 0.0316 µM; stronger effect = lower value; spheroids with HUVEC and MSC
Endpoint: viability, T/C (%)
Provide only the numeric value, understood in %.

Worked cases, answers included:
CC(C)n1nc(-c2ccc3oc(N)nc3c2)c2c(N)ncnc21 + Cc1nc(NC(=O)N2CCCC2C(N)=O)sc1-c1ccnc(C(C)(C)C(F)(F)F)c1: 86.5
CC(C)n1nc(-c2ccc3oc(N)nc3c2)c2c(N)ncnc21 + CC(Nc1ncnc2nc[nH]c12)c1cc2cccc(Cl)c2c(=O)n1-c1ccccc1: 68.9
CC(C)NCC(C(=O)N1CCN(c2ncnc3c2C(C)CC3O)CC1)c1ccc(Cl)cc1 (centres undefined) + Cc1nc(NC(=O)N2CCCC2C(N)=O)sc1-c1ccnc(C(C)(C)C(F)(F)F)c1: 96

Kindly review the next molecule as well.
// lookup viability, T/C for C[C@@H](NC(=O)c1ncnc(N)c1Cl)c1ncc(C(=O)Nc2cc(C(F)(F)F)c(Cl)cn2)s1 + CC(Nc1ncnc2nc[nH]c12)c1cc2cccc(Cl)c2c(=O)n1-c1ccccc1
87.7

----------
viability, T/C overview
System: 475296-252-R-J1-PDC spheroid viability
Experiment: Anticancer human tumor 475296-252-R-J1-PDC cell line growth inhibition [PI3K];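 further: spheroids exposed to agents for seven days before readout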
Conditions: second compound 0.01 µM; first compound 3.16 µM; stronger effect = lower value; spheroids with HUVEC and MSC
Please reply with the bare figure in % and do not write the unit itself.

Sample records with viability, T/C:
CC(C)NCC(C(=O)N1CCN(c2ncnc3c2C(C)CC3O)CC1)c1ccc(Cl)cc1 (stereo unspecified) + CC(Nc1ccc2c(c1)OCCn1cc(N3C(=O)OCC3C(F)F)nc1-2)C(N)=O: 65.3
C=CC(=O)N1CCN(c2nc(=O)n(-c3c(C)ccnc3C(C)C)c3nc(-c4c(O)cccc4F)c(F)cc23)C(C)C1 (stereo unspecified) + CC(Nc1ccc2c(c1)OCCn1cc(N3C(=O)OCC3C(F)F)nc1-2)C(N)=O: 102
Cn1nccc1Nc1nccc(-c2ccn(C(CO)c3ccc(Cl)c(F)c3)c(=O)c2)n1 (stereo unspecified) + CC(Nc1ccc2c(c1)OCCn1cc(N3C(=O)OCC3C(F)F)nc1-2)C(N)=O: 92.1
C=CC(=O)N1CCN(c2nc(=O)n(-c3c(C)ccnc3C(C)C)c3nc(-c4c(O)cccc4F)c(F)cc23)C(C)C1 (stereo unspecified) + COc1c(OCCCN2CCOCC2)ccc2c3n(c(=NC(=O)c4cnc(N)nc4)nc12)CCN3: 106
CC1(C)CCC(CN2CCN(c3ccc(C(=O)NS(=O)(=O)c4ccc(NCC5CCOCC5)c([N+](=O)[O-])c4)c(Oc4cnc5[nH]ccc5c4)c3)CC2)=C(c2ccc(Cl)cc2)C1 + COc1c(OCCCN2CCOCC2)ccc2c3n(c(=NC(=O)c4cnc(N)nc4)nc12)CCN3: 86
Cn1ncc(Cl)c1-c1cc(C(=O)NC(CN)Cc2cccc(F)c2)sc1Cl (stereo unspecified) + CC(Nc1ccc2c(c1)OCCn1cc(N3C(=O)OCC3C(F)F)nc1-2)C(N)=O: 73.8

# query: viability, T/C of entry CNC(=O)c1ccc(N2C(=S)N(c3ccc(C#N)c(C(F)(F)F)c3)C(=O)C2(C)C)cc1F + COc1c(OCCCN2CCOCC2)ccc2c3n(c(=NC(=O)c4cnc(N)nc4)nc12)CCN3
100

Give its viability, T/C value. Item: C[C@@H](NC(=O)c1ncnc(N)c1Cl)c1ncc(C(=O)Nc2cc(C(F)(F)F)c(Cl)cn2)s1 + CC(Nc1ccc2c(c1)OCCn1cc(N3C(=O)OCC3C(F)F)nc1-2)C(N)=O
108

Source of measurements: PubChem BioAssay AID1963980
